- targetUnderTest: GABAA receptor α2β3γ2 (Homo sapiens, UniProt P18507+P47869)
- Construct: expressed in transfected cells; host or cells: Xenopus laevis oocytes injected with cRNA
- measurementProtocol: Two-electrode voltage-clamp potentiation of GABA EC10 current in Xenopus oocytes, GABAA2
- Type: cell-based
- setupConditions: percentage potentiation of GABA EC10 current divided by that of diazepam
Reported Relative Potentiation for GABAA2 by item:
// no unit string in output, number only

Past entries and their recorded results:
CCCN1Cc2nc3c(-c4c(F)cccc4OC)cccc3c(N)c2C1=O 0.3
COc1cc(C)c(-c2c(F)ccc3c(N)c4c(nc23)CN(C2CCC2)C4=O)cn1 0.17
Cc1ccc(-c2cccc3c(N)c4c(nc23)CN(C2CCC2)C4=O)cn1 0.21
COc1cccc(Cl)c1-c1c(F)ccc2c(N)c3c(nc12)CN(C1CC1)C3=O 0.013
N#Cc1ccc(F)cc1-c1cccc2c(N)c3c(nc12)CN(C1CCC1)C3=O 0.21

Turning now to a further molecule:
// query API: value(readout=Relative Potentiation for GABAA2, system=GABAA receptor α2β3γ2 (Homo sapiens, UniProt P18507+P47869)) for record COc1ncccc1-c1c(F)ccc2c(N)c3c(nc12)CN(C1CC1)C3=O
// result 0.26

###

- targetUnderTest: GABAA2 receptors (α2, β3, γ2 receptor subunits transfected into Sf9 cells) (Homo sapiens, UniProt P18507+P47869)
- Sequence (P47869 29-451): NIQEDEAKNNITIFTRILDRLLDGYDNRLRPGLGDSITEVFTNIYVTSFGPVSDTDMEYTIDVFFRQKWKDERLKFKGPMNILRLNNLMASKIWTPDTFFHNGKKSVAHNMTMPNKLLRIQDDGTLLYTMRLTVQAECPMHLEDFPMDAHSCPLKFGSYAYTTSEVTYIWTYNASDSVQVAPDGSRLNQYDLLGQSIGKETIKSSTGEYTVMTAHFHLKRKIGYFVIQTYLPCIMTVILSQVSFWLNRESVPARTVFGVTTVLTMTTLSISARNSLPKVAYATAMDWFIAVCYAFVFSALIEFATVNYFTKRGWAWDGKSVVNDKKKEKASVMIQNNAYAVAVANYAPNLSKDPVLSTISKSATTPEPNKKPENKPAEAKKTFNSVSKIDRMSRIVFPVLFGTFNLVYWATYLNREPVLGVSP
- Sequence (P28472 26-473 partner): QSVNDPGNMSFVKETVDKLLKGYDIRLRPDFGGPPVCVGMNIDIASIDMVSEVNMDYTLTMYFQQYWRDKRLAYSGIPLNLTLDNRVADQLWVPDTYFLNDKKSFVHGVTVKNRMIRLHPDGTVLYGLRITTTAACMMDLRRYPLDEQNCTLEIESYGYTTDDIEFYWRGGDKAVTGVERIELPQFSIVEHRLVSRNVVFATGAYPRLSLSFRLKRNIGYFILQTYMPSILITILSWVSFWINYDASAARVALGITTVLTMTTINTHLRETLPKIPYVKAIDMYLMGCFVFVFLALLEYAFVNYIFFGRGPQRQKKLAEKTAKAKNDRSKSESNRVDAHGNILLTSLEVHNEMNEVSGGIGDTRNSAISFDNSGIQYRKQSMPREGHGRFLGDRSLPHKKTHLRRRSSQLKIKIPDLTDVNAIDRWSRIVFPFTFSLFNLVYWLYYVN
- Sequence (P18507 40-475): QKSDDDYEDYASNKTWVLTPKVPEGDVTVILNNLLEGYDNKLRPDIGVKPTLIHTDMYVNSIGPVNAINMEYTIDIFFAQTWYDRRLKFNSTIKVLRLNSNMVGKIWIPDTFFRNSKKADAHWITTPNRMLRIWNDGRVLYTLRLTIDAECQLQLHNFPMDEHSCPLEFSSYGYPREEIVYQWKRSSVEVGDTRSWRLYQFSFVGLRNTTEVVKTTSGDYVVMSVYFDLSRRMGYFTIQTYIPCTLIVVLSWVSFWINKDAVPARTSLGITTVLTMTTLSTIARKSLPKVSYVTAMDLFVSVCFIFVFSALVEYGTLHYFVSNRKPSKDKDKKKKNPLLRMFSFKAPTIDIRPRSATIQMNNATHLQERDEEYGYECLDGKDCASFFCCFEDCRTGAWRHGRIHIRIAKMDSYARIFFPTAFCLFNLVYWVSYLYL
- measurementProtocol: GABAA2 Binding Method ([3H]-Flunitrazepam displacement)
- setupConditions: [3H]-Flunitrazepam ~2 nM, α2β3γ2 Sf9 membranes, 1 hr at 4° C.
Reported Ki by item:
Value expressed in nM; do not type the unit.

Past entries and their recorded results:
CCN1Cc2nc3c(-c4ccc(OC)c(OC)c4)c(F)ccc3c(N)c2C1=O 4.52
CCCN1Cc2nc3c(-c4cccnc4OC)cccc3c(N)c2C1=O 42.1
COc1cccc(C#N)c1-c1cccc2c(N)c3c(nc12)CN(C1CCC1)C3=O 5.46

// query Record request: Ki value, item Nc1c2c(nc3c(-c4ccc(F)nc4F)cccc13)CN(C1CCC1)C2=O
// result 0.732

// query Record request: Ki value, item CCCN1Cc2nc3c(-c4ccccc4C(F)(F)F)cccc3c(N)c2C1=O
// result 16.6

// query Record request: Ki value, item CCN1Cc2nc3c(-c4ccc(OC)cc4OC)cccc3c(N)c2C1=O
// result 99.1

// query Record request: Ki value, item COc1ccc(CN2Cc3nc4c(-c5c(F)cccc5OC)cccc4c(N)c3C2=O)cc1OC
// result 2.68

// query Record request: Ki value, item CCCN1Cc2nc3c(-c4ccc(OC)c(OC)c4)cccc3c(N)c2C1=O
// result 12.3

###

Reported Relative Potentiation for GABAA2 by item:
- targetUnderTest: GABAA receptor α2β3γ2 (Homo sapiens, UniProt P18507+P47869)
- Construct: expressed in transfected cells; host or cells: Xenopus laevis oocytes injected with cRNA
- measurementProtocol: Two-electrode voltage-clamp potentiation of GABA EC10 current in Xenopus oocytes, GABAA2
- Format: cell-based
- setupConditions: percentage potentiation of GABA EC10 current divided by that of diazepam
// no unit string in output, number only

CCCN1Cc2nc3c(-c4cccnc4)cccc3c(N)c2C1=O 0.27

// query Record request: Relative Potentiation for GABAA2 value, item COc1ncc(-c2cccc3c(N)c4c(nc23)CN(C2CCC2)C4=O)cc1C
// result 0.16

// query Record request: Relative Potentiation for GABAA2 value, item CCN1Cc2nc3c(-c4cnccc4C)c(F)ccc3c(N)c2C1=O
// result 0.094

// query Record request: Relative Potentiation for GABAA2 value, item COc1ncncc1-c1cccc2c(N)c3c(nc12)CN(C1CCC1)C3=O
// result 0.52

###

- targetUnderTest: GABAA2 receptors (α2, β3, γ2 receptor subunits transfected into Sf9 cells) (Homo sapiens, UniProt P18507+P47869)
- measurementProtocol: GABAA2 Binding Method ([3H]-Flunitrazepam displacement)
- setupConditions: [3H]-Flunitrazepam ~2 nM, α2β3γ2 Sf9 membranes, 1 hr at 4° C.
pKi: −log10 of the molar value.
Please mark Fulfilled if the recorded pKi is equal to or greater than 8, and Not fulfilled if it falls below.

compound	group
Cc1nn(C)cc1-c1cccc2c(N)c3c(nc12)CN(C1CCC1)C3=O	Fulfilled
CCCN1Cc2nc3c(-c4ccccc4C)cccc3c(N)c2C1=O	Fulfilled
COc1ncncc1-c1cccc2c(N)c3c(nc12)CN(C1CCC1)C3=O	Fulfilled

// query Decide: pKi of CCCN1Cc2nc3c(-c4cc(C)ccc4OC)cccc3c(N)c2C1=O >= 8?
// result Not fulfilled

// query Decide: pKi of CCCCN1Cc2nc3c(-c4cc(C)ccc4OC)cccc3c(N)c2C1=O >= 8?
// result Not fulfilled

// query Decide: pKi of Cc1cccc(C)c1-c1cccc2c(N)c3c(nc12)CN(C1CC1)C3=O >= 8?
// result Not fulfilled

// query Decide: pKi of CCCN1Cc2nc3c(-c4c(C#N)cccc4OC)cccc3c(N)c2C1=O >= 8?
// result Not fulfilled

// query Decide: pKi of COc1ccc(C)cc1-c1cccc2c(N)c3c(nc12)CN(C1CC1)C3=O >= 8?
// result Fulfilled

// query Decide: pKi of N#Cc1ccccc1-c1cccc2c(N)c3c(nc12)CN(C1CCCC1)C3=O >= 8?
// result Fulfilled

// query Decide: pKi of CCCN1Cc2nc3c(-c4cccnc4F)cccc3c(N)c2C1=O [Example 13] >= 8?
// result Not fulfilled

// query Decide: pKi of CCCN1Cc2nc3c(-c4cc(OC)c(OC)c(OC)c4)cccc3c(N)c2C1=O >= 8?
// result Not fulfilled

// query Decide: pKi of COc1ccc(CN2Cc3nc4c(-c5ccc(C)nc5)cccc4c(N)c3C2=O)cc1 >= 8?
// result Not fulfilled

// query Decide: pKi of CCN1Cc2nc3c(-c4cc(F)cc(OC)c4)cccc3c(N)c2C1=O >= 8?
// result Not fulfilled

// query Decide: pKi of COc1ccc(CN2Cc3nc4c(-c5ccc(C)nc5C)cccc4c(N)c3C2=O)cc1OC >= 8?
// result Fulfilled

###

- targetUnderTest: GABAA2 receptors (α2, β3, γ2 receptor subunits transfected into Sf9 cells) (Homo sapiens, UniProt P18507+P47869)
- measurementProtocol: GABAA2 Binding Method ([3H]-Flunitrazepam displacement)
- setupConditions: [3H]-Flunitrazepam ~2 nM, α2β3γ2 Sf9 membranes, 1 hr at 4° C.
reportedProperty: pKi
Lab note: report pKi as minus log10 of the concentration in molar units, number only.

Past entries and their recorded results:
COc1ccc(F)cc1-c1c(F)ccc2c(N)c3c(nc12)CN(C1CC1)C3=O 8.13
COc1ccc(-c2cccc3c(N)c4c(nc23)CN(C2CC2)C4=O)c(F)c1 7.84

Turning now to a further molecule:
// query Record request: pKi value, item COc1cc(F)c(-c2cccc3c(N)c4c(nc23)CN(C2CC2)C4=O)c(F)c1
// result 8.09
